Recorded %Inh values for a group of compounds are listed next.
Test system: CSNK1D
condition-summary: concentration: 1 μM, replicates: in singlicate; n = 1;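 also: KINOMEscan kinase panel screen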
Just the number please, in %, no unit attached.

Ask: Look up %Inh for this compound: COc1ccc2nc(-c3cccc(C)n3)nc(Nc3ccncc3)c2c1
Reply: 49

Ask: Look up %Inh for this compound: O=C1NC(=O)C(N2CCc3ccccc32)=C1c1ccccc1Cl
Reply: 18

Ask: Look up %Inh for this compound: COc1cc2nccc(Nc3ccc(NC(=O)c4ccc(C)cc4)c(O)c3)c2cc1OC.Cl
Reply: 2

====

Test system: DYRK1B
condition-summary: concentration: 1 μM, replicates: in singlicate; n = 1
quantity: %Inh (%)
Just the number please, in %, no unit attached.

Some entries whose results are on file:
Cl.O=C(Nc1cccc(-c2nn3ncccc3c2-c2ccnc(Nc3cccnc3)n2)c1)c1c(F)cccc1F = 18
Cc1ccc(NC(=O)Nc2cccc(Cl)c2)cc1-c1ccc(C(=O)Nc2ccncc2)cc1 = 21
COc1ccc(C2=C(Nc3cccc(C(=O)O)c3)C(=O)NC2=O)cc1 = 0

Here is the next item to consider.
Ask: Look up %Inh for this molecule: O=C(Nc1ccc2c(c1)OCO2)NC1CCN(c2ccnc(Nc3ccc(F)cc3)n2)C1 (stereo not shown)
Reply: 0

====

Test system: BMPR2
condition-summary: concentration: 1 μM, replicates: in singlicate; n = 1
Recorded %Inh values for a group of compounds are listed next.

Some entries whose results are on file:
Cc1ccc(C(=O)Nc2ccc(Nc3ccnc4cc(-c5ccccn5)ccc34)cc2O)cc1.Cl = 0%
Cc1cc(N2Cc3ccccc3C2)nc(Nc2ccc(S(=O)(=O)N3CCOCC3)cc2)n1.Cl = 0%
NC(=O)c1nnc2ccccc2c1N = 36%

Here is the next item to consider.
Ask: Look up %Inh for this compound: Cc1cccc(-c2nc(Nc3ccncc3)c3ccccc3n2)n1
Reply: 0%

====

Tested on: NDR2
condition-summary: concentration: 1 μM, replicates: in singlicate; n = 1
quantity: %Inh

O=C(Nc1n[nH]c2cc(-c3cccc(F)c3F)ccc12)C1CC1 [SB-733894] = 0%
COC(=O)c1c(-c2ccccc2)c2cc(OC)ccc2c(=O)n1Cc1ccccc1 = 3%
Cl.O=C(Nc1cccc(-c2nn3ncccc3c2-c2ccnc(Nc3cccnc3)n2)c1)c1c(F)cccc1F [GSK312879] = 0%
Cc1cc(N2Cc3ccccc3C2)nc(Nc2ccc(S(=O)(=O)N3CCOCC3)cc2)n1.Cl [GSK1669917] = 0%
Cc1cccc(-c2nc(Nc3ccc4[nH]ncc4c3)c3ccccc3n2)n1 [GW857175] = 5%
CS(=O)(=O)c1ccc(-c2nc3n(c2-c2ccncc2)CCC3)cc1 [SKF-105942] = 0%

Ask: Look up %Inh for this molecule: O=C(Nc1n[nH]c2nc(-c3nccs3)c(Br)cc12)C1CC1 [SB-742251]
Reply: 0%

Ask: Look up %Inh for this molecule: NC(=O)c1nnc2ccccc2c1N
Reply: 0%

Ask: Look up %Inh for this molecule: Cc1ccc(C(=O)Nc2ccc(Nc3ccnc4cc(-c5ccccn5)ccc34)cc2O)cc1.Cl [GW440146]
Reply: 0%

====

Recorded %Inh values for a group of molecules are listed next.
Tested on: DDR2
condition-summary: concentration: 1 μM, replicates: in singlicate; n = 1
Just the number please, in %, no unit attached.

Some entries whose results are on file:
CCCc1ccc(S(=O)(=O)NC2CCN(c3ccnc(Nc4ccc(F)cc4)n3)C2)cc1 (centres unmarked) [GSK1379715] = 7
COc1ccccc1-c1ccc2c(NC(=O)C3CC3)n[nH]c2n1 [SB-711239] = 22

Ask: Look up %Inh for this molecule: Cn1ccc2ncnc(Oc3ccc(Nc4nc5ccccc5[nH]4)cc3)c21
Reply: 16

Ask: Look up %Inh for this molecule: O=C(O)COc1ncnc2cc(-c3ccc4[nH]ncc4c3)sc12
Reply: 7

Ask: Look up %Inh for this molecule: Cc1cccc(-c2nc(C)cc(Nc3ccncc3)n2)n1 [GSK257997]
Reply: 1

====

Test system: RPS6KA4(Kin.Dom.1-N-terminal)
condition-summary: concentration: 1 μM, replicates: in singlicate; n = 1
Values of %Inh strictly less than 7% map to Satisfied, and values of at least 7% map to Not satisfied.

Cc1c(O)cccc1Nc1ccnc2ccc(C(F)(F)F)cc12.Cl = Not satisfied

Ask: # TODO verify %Inh < 7% strictly for this molecule: COc1ccc(C2=C(Nc3cccc(C(=O)O)c3)C(=O)NC2=O)cc1
Reply: Not satisfied

Ask: # TODO verify %Inh < 7% strictly for this molecule: Cc1cccc(-c2nc(-c3ccc(S(C)(=O)=O)cc3)sc2-c2ccnc(NCCc3ccccc3)c2)c1
Reply: Satisfied

Ask: # TODO verify %Inh < 7% strictly for this molecule: CCn1c(-c2ccccn2)nc2cnccc21
Reply: Not satisfied

Ask: # TODO verify %Inh < 7% strictly for this molecule: Cn1ccc2ncnc(Oc3cccc(C(=O)Nc4ccccc4)c3)c21
Reply: Satisfied

Ask: # TODO verify %Inh < 7% strictly for this molecule: Cc1cc(N2Cc3ccccc3C2)nc(Nc2ccc(S(=O)(=O)N3CCOCC3)cc2)n1.Cl
Reply: Satisfied

Ask: # TODO verify %Inh < 7% strictly for this molecule: Cn1ccc2ncnc(Oc3ccc(NC(=O)Nc4ccccc4)cc3)c21
Reply: Not satisfied

====

Tested on: MEK5
Construct: gene MAP2K5
condition-summary: concentration: 1 μM, replicates: in singlicate; n = 1
Kindly note that classification relies on %Inh with these boundaries: lowest: < 9%; middle: ≥ 9% and < 40%; highest: ≥ 40%

Solved cases below.
Cc1cc(-c2ccc3c(c2)CC[C@@H](N[C@@H](C)c2ccccc2)C3)cnc1N.Cl = highest
Cc1ccc(NC(=O)Nc2cc(C(C)(C)C)nn2-c2ccccc2)cc1 = lowest
Cn1ccc2ncnc(Oc3ccc(Nc4nc5ccccc5[nH]4)cc3)c21 = middle
C[C@@H]1CCCCN1c1cc(-c2ccc3c(N)n[nH]c3c2)nc(N)n1 = lowest
Cc1c(O)cccc1Nc1ccnc2ccc(C(F)(F)F)cc12.Cl = middle

Ask: Which %Inh band matches CN1C(=O)C(Nc2ccc(Cl)c(C(=O)O)c2)=C(c2ccc(Cl)cc2)C1=O ?
Reply: lowest

Ask: Which %Inh band matches O=S(=O)(c1ccc(-c2ccnc3[nH]ccc23)cc1)N1CCCC1 ?
Reply: middle

Ask: Which %Inh band matches CCn1c(-c2ccccn2)nc2cnccc21 ?
Reply: middle

Ask: Which %Inh band matches COc1ccc(Nc2nccc(NCCNC(=O)Nc3ccccc3F)n2)cc1 ?
Reply: highest

Ask: Which %Inh band matches CC(C)(C)c1ccc(C(=O)Nc2cn3cc(Cl)ccc3n2)cc1 ?
Reply: middle

Ask: Which %Inh band matches COc1cccc(-c2cc(-c3c[nH]nc3-c3ccccn3)ccn2)c1 ?
Reply: middle

Ask: Which %Inh band matches Cc1cccc(-c2nc(-c3ccc(S(C)(=O)=O)cc3)sc2-c2ccnc(NCCc3ccccc3)c2)c1 ?
Reply: lowest

Ask: Which %Inh band matches CC1=C(C(=O)Nc2cc3cn[nH]c3cc2F)C(c2ccc(C(F)(F)F)cc2)CC(=O)N1 (stereo not shown) ?
Reply: lowest

Ask: Which %Inh band matches CS(=O)(=O)c1ccc(-c2c(-c3ncn[nH]3)sc(N3CCOCC3)c2C#N)cc1 ?
Reply: middle

Ask: Which %Inh band matches Nc1nc(-c2nccs2)c(-c2ccnc3ccccc23)s1 ?
Reply: highest

Ask: Which %Inh band matches COc1cc2ncn(-c3cc(OCC4CCCO4)c(C(N)=O)s3)c2cc1OC (stereo not shown) ?
Reply: highest

Ask: Which %Inh band matches Cc1cccc(-c2cc(Nc3ccncc3)c3ccccc3n2)n1 ?
Reply: lowest

Ask: Which %Inh band matches CC(=O)Nc1nc2cnc(Nc3cc(NC(=O)c4cccc(CCC#N)c4)ccc3C)nc2s1 ?
Reply: lowest

Ask: Which %Inh band matches COc1ccccc1CNC(=O)c1cc(C(=O)c2ccccc2C)c[nH]1 ?
Reply: middle

Ask: Which %Inh band matches Cn1cncc1-c1ccc2ncnc(Nc3ccc(OCc4ccccc4)cc3)c2c1 ?
Reply: highest

Ask: Which %Inh band matches COC(=O)c1c(-c2ccccc2)c2cc(C(=O)O)ccc2c(=O)n1Cc1ccccc1 ?
Reply: lowest

====

Tested on: AURKA
condition-summary: concentration: 1 μM, replicates: in singlicate; n = 1
Values of %Inh strictly less than 20% map to MET, and values of at least 20% map to NOT MET.

Solved cases below.
Cl.NC(=O)c1cccc(Nc2nccc(Nc3ccc(Oc4cccc(Cl)c4)c(Cl)c3)n2)c1 [GW659008] = MET
CN1C(=O)C(Nc2ccc(Cl)c(C(=O)O)c2)=C(c2ccc(Cl)cc2)C1=O [SB-404290] = MET
COc1ccc2nc(-c3cccc(C)n3)nc(Nc3ccncc3)c2c1 [GSK204919] = MET
Cc1cc(NCC(c2ccccc2)c2ccccc2)nc(NCc2ccc(C(F)(F)F)cc2)n1 [GW497681] = MET
Cn1cncc1-c1ccc2ncnc(Nc3ccc(OCc4ccccc4)cc3)c2c1 [GW320571] = MET

Ask: # TODO verify %Inh < 20% strictly for this compound: O=C(Nc1n[nH]c2cc(-c3cccc(F)c3F)ccc12)C1CC1 [SB-733894]
Reply: NOT MET

Ask: # TODO verify %Inh < 20% strictly for this compound: COc1cc2nccc(Nc3ccc(NC(=O)c4ccc(C)cc4)c(O)c3)c2cc1OC.Cl [GW440132]
Reply: MET

Ask: # TODO verify %Inh < 20% strictly for this compound: COc1cccc(NC(=O)NC2CCN(c3ccnc(Nc4ccc(F)cc4)n3)C2)c1 (centres unmarked) [GSK1379721]
Reply: NOT MET

Ask: # TODO verify %Inh < 20% strictly for this compound: Cc1c(Cn2ccn3c(=O)cc(N4CCOCC4)nc23)cccc1C(F)(F)F [GSK2289044]
Reply: MET

Ask: # TODO verify %Inh < 20% strictly for this compound: Cc1ccc(NC(=O)Nc2cc(C(C)(C)C)nn2-c2ccccc2)cc1 [GSK1014915]
Reply: MET
